Target: T1, recombinant cynomolgus monkey (Macaca fascicularis) transferrin receptor 1 (cynomolgus monkey (Macaca fascicularis), UniProt Q5RDH6 87-760 (Pongo abelii entry), limits assumed)
T1 construct: also called cTfR1; cyno TfR1
T1 chain: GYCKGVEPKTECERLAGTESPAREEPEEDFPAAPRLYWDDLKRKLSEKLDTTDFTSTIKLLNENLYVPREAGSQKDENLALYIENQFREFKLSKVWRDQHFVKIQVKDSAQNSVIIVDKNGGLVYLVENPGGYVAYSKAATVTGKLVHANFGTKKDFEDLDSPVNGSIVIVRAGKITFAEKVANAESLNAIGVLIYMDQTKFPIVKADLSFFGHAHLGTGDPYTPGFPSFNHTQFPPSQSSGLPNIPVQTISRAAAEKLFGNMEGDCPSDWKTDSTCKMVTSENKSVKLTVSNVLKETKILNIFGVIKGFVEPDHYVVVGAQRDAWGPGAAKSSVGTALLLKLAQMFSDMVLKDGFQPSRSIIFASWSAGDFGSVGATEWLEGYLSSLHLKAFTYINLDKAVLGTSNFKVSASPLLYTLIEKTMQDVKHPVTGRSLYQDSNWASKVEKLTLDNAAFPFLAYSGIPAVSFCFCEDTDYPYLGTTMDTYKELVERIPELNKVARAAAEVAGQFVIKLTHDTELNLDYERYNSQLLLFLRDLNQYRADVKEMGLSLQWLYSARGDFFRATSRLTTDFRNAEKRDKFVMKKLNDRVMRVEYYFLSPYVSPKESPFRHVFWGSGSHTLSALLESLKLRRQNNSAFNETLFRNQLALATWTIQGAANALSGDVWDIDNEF
Assay: ELISA, Fab-ASO300 conjugate; printed as 'DMPK oligo conjugate binding to cyno TfR1 (nM)'
Measured Quantity: pEC50
# log scale: pEC50 equals minus log10 of the concentration in mol/L

Worked examples, 3 binders total:
[Q] Need pEC50, item 5H12 (VH5-C33Y/Vk4) Fab conjugated to DMPK-targeting oligonucleotide ASO300 (Fab, V domains shown, ASO300 oligonucleotide covalently conjugated via linker of Formula (C); residue and chain not stated, also called DMPK oligo conjugate) VH: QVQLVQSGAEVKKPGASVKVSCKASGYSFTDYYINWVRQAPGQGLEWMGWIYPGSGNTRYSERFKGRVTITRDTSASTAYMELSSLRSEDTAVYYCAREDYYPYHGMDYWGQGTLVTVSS VL: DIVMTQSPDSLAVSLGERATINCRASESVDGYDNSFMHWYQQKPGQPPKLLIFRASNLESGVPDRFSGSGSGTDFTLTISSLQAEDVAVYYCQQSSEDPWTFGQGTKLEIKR
[A] 7.86

[Q] Need pEC50, item 3A4 (VH3-N54S/Vk4) Fab conjugated to DMPK-targeting oligonucleotide ASO300 (Fab, V domains shown, ASO300 oligonucleotide covalently conjugated via linker of Formula (C); residue and chain not stated, also called 3A4 (VH3-N54S/Vk4) conjugate; DMPK oligo conjugate) VH: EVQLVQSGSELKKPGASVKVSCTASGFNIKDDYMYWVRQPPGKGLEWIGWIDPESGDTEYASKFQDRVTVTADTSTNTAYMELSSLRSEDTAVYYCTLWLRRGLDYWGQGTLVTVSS VL: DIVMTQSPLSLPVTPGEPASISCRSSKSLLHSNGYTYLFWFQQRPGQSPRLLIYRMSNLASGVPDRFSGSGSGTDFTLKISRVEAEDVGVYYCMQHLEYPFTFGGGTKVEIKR
[A] 8.39

[Q] Need pEC50, item 3M12 (VH4/Vk3) Fab conjugated to DMPK-targeting oligonucleotide ASO300 (Fab, V domains shown, ASO300 oligonucleotide covalently conjugated via linker of Formula (C); residue and chain not stated, also called 3M12 (VH4/Vk3) conjugate; DMPK oligo conjugate) VH: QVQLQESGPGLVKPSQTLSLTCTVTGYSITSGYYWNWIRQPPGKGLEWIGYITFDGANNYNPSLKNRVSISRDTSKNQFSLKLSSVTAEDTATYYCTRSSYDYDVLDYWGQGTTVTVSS VL: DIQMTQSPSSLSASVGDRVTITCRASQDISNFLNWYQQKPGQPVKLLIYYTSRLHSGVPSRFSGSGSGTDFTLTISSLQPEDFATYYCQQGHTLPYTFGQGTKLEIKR
[A] 8.73

Consider the additional binder presented here.
[Q] Need pEC50, item 3A4 (VH3-N54T/Vk4) Fab conjugated to DMPK-targeting oligonucleotide ASO300 (Fab, V domains shown, ASO300 oligonucleotide covalently conjugated via linker of Formula (C); residue and chain not stated, also called 3A4 (VH3-N54T/Vk4) conjugate; DMPK oligo conjugate) VH: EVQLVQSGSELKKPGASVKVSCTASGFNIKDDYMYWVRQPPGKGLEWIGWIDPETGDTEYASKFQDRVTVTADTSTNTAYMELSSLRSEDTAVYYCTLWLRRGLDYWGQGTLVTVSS VL: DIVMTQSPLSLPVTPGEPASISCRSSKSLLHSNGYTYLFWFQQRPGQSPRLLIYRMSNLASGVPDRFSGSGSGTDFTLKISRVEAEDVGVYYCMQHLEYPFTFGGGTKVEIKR
[A] 8.29
